# Test system: NCI-H1417 complex spheroids, growth % test/control
# METHOD: Anticancer human tumor NCI-H1417 cell line growth inhibition [Asc];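 note: spheroids exposed to compounds for 7 days; 100% = DMSO vehicle control wells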
# STATED_CONDITIONS: second compound 3.16 µM; first compound 10 µM; stronger effect = lower value
Quick list: viability, T/C per entry.
PARAMETER: viability, T/C (%)

[[record]]
compound = "O=C(c1cc(Cc2n[nH]c(=O)c3ccccc23)ccc1F)N1CCN(C(=O)C2CC2)CC1 + Cc1c(S(C)(=O)=O)c(-c2cc(F)cc(N3CCN(c4ccc(NS(=O)(=O)c5ccc(NC(CCN6CCC(C(=O)OCCCP(=O)(O)O)CC6)CSc6ccccc6)c(S(=O)(=O)C(F)(F)F)c5)cc4)CC3)c2)c(-c2ccc(Cl)cc2)n1C(C)C"
parameter = "viability, T/C"
result_unit = "%"
result_value = 2.96

[[record]]
compound = "C=CC(=O)N1CCN(c2nc(=O)n(-c3c(C)ccnc3C(C)C)c3nc(-c4c(O)cccc4F)c(F)cc23)C(C)C1 (centres undefined) + Cc1c(S(C)(=O)=O)c(-c2cc(F)cc(N3CCN(c4ccc(NS(=O)(=O)c5ccc(NC(CCN6CCC(C(=O)OCCCP(=O)(O)O)CC6)CSc6ccccc6)c(S(=O)(=O)C(F)(F)F)c5)cc4)CC3)c2)c(-c2ccc(Cl)cc2)n1C(C)C"
parameter = "viability, T/C"
result_unit = "%"
result_value = 3.94

[[record]]
compound = "C#Cc1c(F)ccc2cc(O)cc(-c3ncc4c(N5CC6CCC(C5)N6)nc(OCC56CCCN5CC(F)C6)nc4c3F)c12 (centres undefined) + Cc1c(S(C)(=O)=O)c(-c2cc(F)cc(N3CCN(c4ccc(NS(=O)(=O)c5ccc(NC(CCN6CCC(C(=O)OCCCP(=O)(O)O)CC6)CSc6ccccc6)c(S(=O)(=O)C(F)(F)F)c5)cc4)CC3)c2)c(-c2ccc(Cl)cc2)n1C(C)C"
parameter = "viability, T/C"
result_unit = "%"
result_value = 2.61

[[record]]
compound = "C=C(F)C(=O)N1CCN(c2nc(OCC3CCCN3C)nc3c2CCN(c2cccc4cccc(Cl)c24)C3)CC1CC#N (centres undefined) + Cc1c(S(C)(=O)=O)c(-c2cc(F)cc(N3CCN(c4ccc(NS(=O)(=O)c5ccc(NC(CCN6CCC(C(=O)OCCCP(=O)(O)O)CC6)CSc6ccccc6)c(S(=O)(=O)C(F)(F)F)c5)cc4)CC3)c2)c(-c2ccc(Cl)cc2)n1C(C)C"
parameter = "viability, T/C"
result_unit = "%"
result_value = 0.12

